Attribution: ChEMBL document CHEMBL1129975

- Target: UniProtKB Q7ZJM1
- Sequence (Q7ZJM1 whole entry): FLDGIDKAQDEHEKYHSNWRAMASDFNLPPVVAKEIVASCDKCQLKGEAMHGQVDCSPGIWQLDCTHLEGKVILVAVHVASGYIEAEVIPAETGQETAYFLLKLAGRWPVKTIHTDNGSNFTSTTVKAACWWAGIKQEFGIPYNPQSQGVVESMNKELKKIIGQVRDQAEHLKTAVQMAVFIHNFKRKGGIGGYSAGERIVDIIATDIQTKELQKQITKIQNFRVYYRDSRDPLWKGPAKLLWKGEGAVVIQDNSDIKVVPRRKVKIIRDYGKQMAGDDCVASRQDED
- Assay Method Text: Inhibitory concentration of compound against strand transfer of HIV-1 integrase in experiment 2
Property Measured: IC50

Cc1cc(C(c2cc(C)c(O)c(C(=O)O)c2)c2cc(C)c(O)c(C(=O)O)c2)cc(C(=O)O)c1O; < 23.4 µM
COc1cc(C)c2c(c1C=O)Oc1c(c(C)c(O)c3c1C(O)OC3=O)OC2=O (centres undefined); 1.9 µM
COc1cc(C(=O)O)c2c(c1C)OC(=O)c1c(C)cc(O)c(C=O)c1O2; 12.3 µM
O=C(O)c1cc(/N=N\c2ccccc2C(=O)O)ccc1O; 224 µM

For each listed entry, give its IC50.
1. O=C(NO)c1cc(O)c(O)c(O)c1
2. Cc1c2cc(O)c(=O)cc-2oc2cc(O)c(O)cc12

1. 1.6 µM
2. 0.9 µM

Your task in this section: give IC50 for each listed record.
1. COC(=O)c1c(C)cc(OC(=O)c2c(C)cc(O)c(C=O)c2O)c(C)c1O
2. CC(=O)C1=C(NNC(=O)c2ccccn2)[C@@]2(C)C(=CC1=O)Oc1c(C(C)=O)c(O)c(C)c(O)c12

1: 44 µM; 2: 55 µM

Hey, quick one: what's IC50 for each of these?
1. CCOC(=O)c1cnc(NCCCNc2ncc(C(=O)OCC)c(=O)[nH]2)[nH]c1=O
2. O=C(Nc1ccc(C(=O)O)c(O)c1)c1ccc(C(=O)Nc2ccc(O)c(C(=O)O)c2)cc1
3. O=C(O)c1ccccc1C(c1cc(Br)c(O)c(Br)c1)c1ccc(Br)c(O)c1Br (centres undefined)
4. O=C(O)c1cnc2c(ccc3ncc(C(=O)O)c(O)c32)c1O
5. COc1cc(C)c2c(c1C)OC(=O)c1c(C)c(Cl)c(O)c(C=O)c1O2

1: 7.9 µM; 2: 20 µM; 3: 27.2 µM; 4: 6.1 µM; 5: 2.7 µM

---

- Target: UniProt Q7ZJM1
- Assay Method Text: Inhibitory concentration of compound against strand transfer of HIV-1 integrase in experiment 1
Field: class. Source value: IC50. Ranges: LOW (below 10 µM), MID (10 µM to below 40 µM), HIGH (40 µM or more)

A selection of reference data follows.
Cc1cc(O)c(C=O)c2c1C(=O)Oc1c(CO)c(O)c3c(c1O2)C(O)OC3=O (stereo not given); MID
COc1cc(C)c2c(c1C)OC(=O)c1c(C)c(Cl)c(O)c(C=O)c1O2; LOW
O=C(O)c1ccc(C(=O)O)c2c(C(=O)O)ccc(C(=O)O)c12; HIGH
O=C(O)c1ccccc1C(c1cc(Br)c(O)c(Br)c1)c1ccc(Br)c(O)c1Br (stereo not given); MID
Cc1cc(C(c2cc(C)c(O)c(C(=O)O)c2)c2cc(C)c(O)c(C(=O)O)c2)cc(C(=O)O)c1O; MID
O=C(NO)c1cc(O)c(O)c(O)c1; LOW

For the record Cc1cc(C(O)(c2cc(C)c(O)c(C(=O)O)c2)c2cc(C)c(O)c(C(=O)O)c2)cc(C(=O)O)c1O , report the class its IC50 corresponds to. MID

Textbook exercise: identify the category of the compound given here, COC(=O)c1c(C)cc(OC(=O)c2c(C)cc(O)c(C=O)c2O)c(C)c1O , according to its measured value. MID

Entry O=C(NC(Cc1ccc(O)c(O)c1)C(=O)OCc1ccccc1)c1ccc([N+](=O)[O-])cc1 (stereo not given) belongs to which category? HIGH
